The reported measurements were obtained from patent US20260242478A1.

# assayed-target: anti-CD28 scFv (VH - linker 1 - VL) (biotinylated (site not stated))
# Sequence (scFv, as listed by the source): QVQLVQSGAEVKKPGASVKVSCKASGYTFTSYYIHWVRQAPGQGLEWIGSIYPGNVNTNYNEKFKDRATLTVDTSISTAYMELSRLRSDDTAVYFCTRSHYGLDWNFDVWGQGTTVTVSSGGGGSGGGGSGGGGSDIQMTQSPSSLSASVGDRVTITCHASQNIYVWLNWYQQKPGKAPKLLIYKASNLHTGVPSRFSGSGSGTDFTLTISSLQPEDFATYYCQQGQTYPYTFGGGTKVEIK
# assay-protocol: phage ELISA as above; wells pre-incubated with soluble CD28 (competitor)
So basically: CD28 scFv signal in presence of CD28 at 0.2 or higher? That is true. Lower than 0.2? That is false.

> print(dat)
                                     binder  assigned.label
1  MHWCPRHLWSECFN [Phage-361 clonal phage peptide MHWCPRHLWSECFN]            true
2  MDWCPRNLWHECFA [Phage-342 clonal phage peptide MDWCPRNLWHECFA]           false
3  MDWCPRILWHECFS [Phage-362 clonal phage peptide MDWCPRILWHECFS]           false
4  MDWCPRDLWNWCFN [Phage-336 clonal phage peptide MDWCPRDLWNWCFN]            true

Exercise: Could you tell me if the measured CD28 scFv signal in presence of CD28 of MDFCPRFLWHECFN [Phage-345 clonal phage peptide MDFCPRFLWHECFN] reaches 0.2 or more?
Key: true

Exercise: Could you tell me if the measured CD28 scFv signal in presence of CD28 of MDWCPRYLWLECFN [Phage-354 clonal phage peptide MDWCPRYLWLECFN] reaches 0.2 or more?
Key: true

Exercise: Could you tell me if the measured CD28 scFv signal in presence of CD28 of MDWCPRLLWHECFN [Phage-357 clonal phage peptide MDWCPRLLWHECFN] reaches 0.2 or more?
Key: false

Exercise: Could you tell me if the measured CD28 scFv signal in presence of CD28 of MDWCPMNLWHECFA [Phage-351 clonal phage peptide MDWCPMNLWHECFA] reaches 0.2 or more?
Key: false
